Value source: ChEMBL document CHEMBL1152784

- Tested on: PC-3
- assay_explanation: Cytotoxicity against human PC3 cells after 96 hrs by SRB assay
- condition_details: PC-3, 96 h
measured_property: IC50 (nM)
Field: numeric (nM). Do not append units.

A selection of reference data follows.
• COc1cc(C(=O)c2csc(-c3ccc(C(F)(F)F)cc3)n2)cc(OC)c1OC = 58
• COc1cc(C(=O)c2csc(-c3ccc([N+](=O)[O-])cc3)n2)cc(OC)c1OC = 56
• COc1cc(C(=O)c2csc(-c3ccc(C)cc3)n2)cc(OC)c1OC = 5

Which IC50 value is on record for COc1cc(C(=O)c2csc(-c3ccc(N)cc3)n2)cc(OC)c1OC ? 12
